# credit: patent US20150045540A1

study_target: T1, Placenta Growth Factor (PlGF), human (human, UniProt P49763 21-149)
T1 chain: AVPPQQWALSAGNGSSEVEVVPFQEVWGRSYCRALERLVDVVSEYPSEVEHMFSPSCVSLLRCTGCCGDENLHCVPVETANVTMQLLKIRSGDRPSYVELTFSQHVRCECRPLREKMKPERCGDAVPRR
protocol_notes: ELISA
Entries and their measured EC50 follow.
Give your result in nM as a bare value.

binder	units	EC50
HC 2/SLC 4 (antibody) chain 1: GQGTLVTVSSASQPVLHQPPAMSSALGTTIRLTCTLRNDHDIGVYSVYWYQQRPGHPPRFLLRYFSQSDKSQGPQVPPRFSGSKDVARNRGYLSISELQPEDEAMYYCAMGARSRCWPRGFQSKHNSVTHVFGSGTQLTVLSQPKATPSVTLFPPSSEELQANKATLVCLMNDFYPGILTVTWKADGTPITQGVEMTTPSKQSNNKYAASSYLSLTPEQWRSRRSYSCQVMHEGSTVEKTVAPAECS chain 2: MSWAPVLLMLFVYCTGCGPQPVLHQPPAMSSALGTTIRLTCTLRNDHDIGVYSVYWYQQRPGHPPRFLLRYFSQSDKSQGPQVPPRFSGSKDVARNRGYLSISVTHVFGSGTQLTVLSQPKQVQLVQ	nM	0.175

Notebook: HC 4/SLC 4 (antibody) chain 1: GQGTLVTVSSASTKQPVLHQPPAMSSALGTTIRLTCTLRNDHDIGVYSVYWYQQRPGHPPRFLLRYFSQSDKSQGPQVPPRFSGSKDVARNRGYLSISELQPEDEAMYYCAMGARSRCWPRGFQSKHNSVTHVFGSGTQLTVLSQPKATPSVTLFPPSSEELQANKATLVCLMNDFYPGILTVTWKADGTPITQGVEMTTPSKQSNNKYAASSYLSLTPEQWRSRRSYSCQVMHEGSTVEKTVAPAECS chain 2: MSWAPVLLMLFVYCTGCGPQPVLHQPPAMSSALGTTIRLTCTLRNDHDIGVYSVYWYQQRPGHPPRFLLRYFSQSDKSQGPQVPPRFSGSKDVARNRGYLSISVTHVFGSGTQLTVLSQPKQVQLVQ , EC50 read as 0.196
